target: GDP-loaded K-Ras (1-169) C51S, C80L, C118S (Homo sapiens, UniProt P01116, C118S/C51S/C80L); construct: GDP-loaded K-Ras (1-169) C51S, C80L, C118S; test: K-Ras WT (GDP) cross-linking assay (conjugate formation, TOF mass spectrometry); type: binding; conditions: Table 4; percent covalently modified K-Ras by MS; room temperature; typical compound conc. 2, 10, 25 μM, endpoints 1 and 24 h
Quantity name: WT x-linking (%)

Before answering, review these 6 worked examples.
CC(=O)N1CC1C(=O)N(C)C1CCN(c2nc(OC[C@@H]3CCCN3C)nc3c2CCN(c2cccc4cccc(C)c24)C3)CC1 (some centres unmarked); + (0 < x ≤ 20)
Cc1cccc2cccc(N3CCc4c(nc(OC[C@@H]5CCCN5C)nc4NCCNC4=NCCO4)C3)c12; + (0 < x ≤ 20)
Fc1ccccc1-c1c(Cl)cc2c(NCCNC3=NCCO3)ncnc2c1F; + (0 < x ≤ 20)
Fc1ccccc1-c1c(Cl)cc2c(N3CCC(N=C=Nc4ccc(Cl)cc4)CC3)ncnc2c1F; 0
Cc1cccc2cccc(N3CCc4c(nc(OC[C@@H]5CCCN5C)nc4NCCN(C)C(=O)NCCCl)C3)c12; 0
CN(CCN=C=NCc1ccccc1)c1ncnc2c(F)c(-c3ccccc3F)c(Cl)cc12; + (0 < x ≤ 20)

Now for the molecule whose WT x-linking (%) we want.
Entry Fc1ccccc1-c1c(Cl)cc2c(N3CCC(N=C=NCc4ccccc4)CC3)ncnc2c1F — recorded WT x-linking (%) = + (0 < x ≤ 20)
